# Tested System: human 5-HT6 receptor (Homo sapiens, UniProt P50406)
# Construct: expressed in transfected cells; host or cells: HEK293 (G-418 selected)
# Sequence (P50406 whole entry): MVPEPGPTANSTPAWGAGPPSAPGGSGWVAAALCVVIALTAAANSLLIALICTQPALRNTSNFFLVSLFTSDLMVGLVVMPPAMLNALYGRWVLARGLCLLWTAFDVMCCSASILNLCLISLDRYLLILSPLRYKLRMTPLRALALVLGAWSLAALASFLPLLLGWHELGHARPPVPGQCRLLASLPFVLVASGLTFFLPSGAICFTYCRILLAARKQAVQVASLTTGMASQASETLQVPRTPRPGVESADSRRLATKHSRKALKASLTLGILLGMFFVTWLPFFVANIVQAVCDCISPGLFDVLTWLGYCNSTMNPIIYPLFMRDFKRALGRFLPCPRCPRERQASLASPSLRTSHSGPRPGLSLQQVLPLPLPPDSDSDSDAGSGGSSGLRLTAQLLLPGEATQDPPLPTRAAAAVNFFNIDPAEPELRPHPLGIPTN
# Procedure Text: 5-HT6 receptor binding assay ([3H]-LSD displacement, SPA, membranes of transfected HEK293 cells)
# Test Context: over all average; 5-HT tested against two different membrane preparations; read-out: Ki value, inhibition of [3H]LSD binding (rank order of potency of unlabelled ligands)
Property: Ki (nM)

compound="CN1C[C@@H](NS(=O)(=O)N(C)C)C[C@@H]2c3cccc4c3c(cn4C)C[C@H]21 [mesulergide]" measured=1970

###

# Tested System: human 5-HT6 receptor (Homo sapiens)
# Construct: expressed in transfected cells; host or cells: HEK293 (G-418 selected)
# Procedure Text: 5-HT6 receptor binding assay ([3H]-LSD displacement, SPA, membranes of transfected HEK293 cells)
pKi: −log10 of the molar value.
Property: pKi

molecule="CC[C@@H](CO)NC(=O)[C@@H]1C=C2c3cccc4c3c(cn4C)C[C@H]2N(C)C1 [methysergide]" measured=6.32

All values here come from patent US20060142269A1.
